- assayed target: OATP1B1 (Homo sapiens, UniProt Q9Y6L6)
- condition notes: human, probe [3H]-cerivastatin, 5 nmol/l
Counter-ions that a name gives are not always drawn.
quantity: inhibition at 5 min, 100 µmol/l (%)
# number only, unit % dropped from output

Exercise: Quote inhibition at 5 min, 100 µmol/l reported for COC(=O)[C@H](c1ccccc1Cl)N1CCc2sccc2C1 [Clopidogrel, Clopidogrel hydrogen sulfate] please.
Solution: 52.7

====

- assayed target: OATP1B1 (Homo sapiens, UniProt Q9Y6L6)
- Sequence (Q9Y6L6 1-691): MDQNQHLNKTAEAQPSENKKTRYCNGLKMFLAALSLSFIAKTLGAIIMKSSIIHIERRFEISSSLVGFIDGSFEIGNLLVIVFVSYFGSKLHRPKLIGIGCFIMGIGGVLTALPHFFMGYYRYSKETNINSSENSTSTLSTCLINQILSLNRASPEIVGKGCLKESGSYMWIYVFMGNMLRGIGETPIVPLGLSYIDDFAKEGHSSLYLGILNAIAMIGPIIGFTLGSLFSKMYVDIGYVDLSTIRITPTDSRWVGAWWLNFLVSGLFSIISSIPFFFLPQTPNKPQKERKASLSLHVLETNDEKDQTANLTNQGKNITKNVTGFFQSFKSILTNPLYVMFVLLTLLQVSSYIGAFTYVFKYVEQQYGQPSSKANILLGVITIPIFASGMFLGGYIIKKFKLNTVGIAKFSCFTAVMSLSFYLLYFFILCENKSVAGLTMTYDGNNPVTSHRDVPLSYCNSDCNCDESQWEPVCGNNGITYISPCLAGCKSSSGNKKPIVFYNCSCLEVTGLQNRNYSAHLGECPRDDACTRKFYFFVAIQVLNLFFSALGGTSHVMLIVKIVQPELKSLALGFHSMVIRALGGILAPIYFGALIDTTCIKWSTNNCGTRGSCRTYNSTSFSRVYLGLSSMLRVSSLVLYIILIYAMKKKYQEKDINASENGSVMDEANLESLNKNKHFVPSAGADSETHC
Structures can show the parent of a compound that is named as a salt.
quantity: IC50 (µM)
# number only, unit µM dropped from output

Here's what some known entries look like.
{"columns": ["compound", "assayed target", "IC50 (µM)"],
 "data": [
  ["COC(=O)[C@H](c1ccccc1Cl)N1CCc2sccc2C1 [Clopidogrel, Clopidogrel hydrogen sulfate]", "OATP1B1 (Homo sapiens, UniProt Q9Y6L6)", 3.95],
  ["N[C@@H](Cc1cc(I)c(Oc2cc(I)c(O)c(I)c2)c(I)c1)C(=O)O", "OATP1B1 (Homo sapiens, UniProt Q9Y6L6)", 0.88]
]}

As a next step, examine the compound that follows.
Exercise: Look up and report IC50, with OATP1B1 (Homo sapiens, UniProt Q9Y6L6) as system, for CN(CCOc1ccc(CC2SC(=O)NC2=O)cc1)c1ccccn1 (stereo not drawn) [Rosiglitazone, Rosiglitazone-potassium salt]
Solution: 43.4
